Consider the following binders; for each one, report its Inflammasome: Fold Decrease IL-1β (max response at 0.3 µg/ml).
study.system: T1, full-length untagged human GPNMB expressed on cells (human, UniProt Q14956 23-572)
T1 sequence: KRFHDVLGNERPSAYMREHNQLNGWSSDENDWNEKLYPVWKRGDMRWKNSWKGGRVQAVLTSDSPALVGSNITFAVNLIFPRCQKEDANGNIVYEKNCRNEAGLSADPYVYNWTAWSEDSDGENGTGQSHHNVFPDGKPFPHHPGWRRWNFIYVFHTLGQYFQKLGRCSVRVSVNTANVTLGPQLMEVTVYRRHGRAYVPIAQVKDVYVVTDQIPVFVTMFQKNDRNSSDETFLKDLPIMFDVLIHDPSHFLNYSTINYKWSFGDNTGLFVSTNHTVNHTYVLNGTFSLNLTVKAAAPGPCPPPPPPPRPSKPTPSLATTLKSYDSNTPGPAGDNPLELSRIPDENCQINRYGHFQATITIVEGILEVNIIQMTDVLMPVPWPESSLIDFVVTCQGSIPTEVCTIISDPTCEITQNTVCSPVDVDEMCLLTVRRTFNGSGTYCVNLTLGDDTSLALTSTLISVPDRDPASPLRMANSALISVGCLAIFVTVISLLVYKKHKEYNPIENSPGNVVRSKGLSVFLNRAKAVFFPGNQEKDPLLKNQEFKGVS
test.protocol: cell-based or functional assay
Expressed in fold, but write only the number.

Would you mind telling me what Inflammasome: Fold Decrease IL-1β (max response at 0.3 µg/ml) value was observed for anti-GPNMB antibody GPN-93 (antibody, V domains shown) VH: QVQLVQSGAEVKKPGASVKVSCKASGYTFTSYWMHWVRQAPGQGLEWMGEINPYDQRTNYAQKFQGRVTMTVDKSTSTVYMELSSLRSEDTAVYYCARSTGNYAWFAYWGQGTLVTVSS VL: DIVMTQSPDSLAVSLGERATINCKTSQDVSPSLAWYQQKPGQPPKLLIYSASKRYTGVPDRFSGSGSGTDFTLTISSLQAEDVAVYYCQQHYSIPLQFGGGTKVEIK ? 0.594

Would you mind telling me what Inflammasome: Fold Decrease IL-1β (max response at 0.3 µg/ml) value was observed for anti-GPNMB antibody GPN-89 (antibody, V domains shown) VH: QVQLQESGPGLVKPSETLSLTCTVSGISITTGNYRWSWIRQPPGKGLEWIGYIDYSGTITYNPSLKSRVTITRDTSKNQFSLELSSVTAADTAVYYCARDLTHWYYDVWGQGTLVTVSS VL: DIVMTQSPDSLAVSLGERATINCKSSRSVDYYGIGFLNWYQQKPGQPPKLLIYATSHQGSGVPDRFSGSGSGTDFTLTISSLQAEDVAVYYCQQQKEVPPTFGGGTKVEIK ? 0.501

Would you mind telling me what Inflammasome: Fold Decrease IL-1β (max response at 0.3 µg/ml) value was observed for anti-GPNMB antibody GPN-82 (antibody, V domains shown) VH: QVQLQESGPGLVKPSETLSLTCTVSGISITTGNYRWSWIRQPPGKGLEWIGYIYYSGTIIYNPSLKSRVTITRDTSKNQFSLELSSVTAADTAVYYCARDLTHWYFDVWGQGTLVTVSS VL: DIVMTQSPDSLAVSLGERATINCKSSRSVDYYGIGFLNWYQQKPGQPPKLLIYATSTQGSGVPDRFSGSGSGTDFTLTISSLQAEDVAVYYCQQQKEVPPTFGGGTKVEIK ? 0.378

Would you mind telling me what Inflammasome: Fold Decrease IL-1β (max response at 0.3 µg/ml) value was observed for anti-GPNMB antibody GPN-86 (antibody, V domains shown) VH: QVQLQESGPGLVKPSETLSLTCTVSGISITTGNYRWSWIRQPPGKGLEWIGYIDYSGTITYNPSLKSRVTITRDTSKNQFSLELSSVTAADTAVYYCARDLTHWYFDVWGQGTLVTVSS VL: DIVMTQSPDSLAVSLGERATINCKSSRSVDYYGIGFLNWYQQKPGQPPKLLIYATSKQGSGVPDRFSGSGSGTDFTLTISSLQAEDVAVYYCQQQKEVPPTFGGGTKVEIK ? 0.404

Would you mind telling me what Inflammasome: Fold Decrease IL-1β (max response at 0.3 µg/ml) value was observed for anti-GPNMB antibody GPN-94 (antibody, V domains shown) VH: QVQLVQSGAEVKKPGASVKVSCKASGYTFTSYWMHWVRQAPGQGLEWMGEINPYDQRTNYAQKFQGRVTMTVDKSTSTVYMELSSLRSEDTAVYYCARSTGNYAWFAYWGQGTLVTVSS VL: DIVMTQSPDSLAVSLGERATINCKTSQDVSPSLAWYQQKPGQPPKLLIYSASKRYTGVPDRFSGSGSGTDFTLTISSLQAEDVAVYYCQQHYSIPLTFGGGTKVEIK ? 0.532

Cited source for all entries: patent US20250270343A1
